Give measured Kd for each item. Keep answers brief.
- TARGET_UNDER_TEST: T1, glutathione S-transferase (UniProt P08515 1-218 = GST)
- T1 construct: Expressed in E. coli, purified on GSH resin; also called GST
- TEST_METHOD_NOTES: SPR, GST immobilised;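 also: nanobody analytes injected as dilution series over three orders of magnitude across antigen on a CM5 chip, kinetics fitted by 1:1 Langmuir model, optionally with mass transfer, duplicate runs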

Task: Which value of Kd has been reported for G34 (VHH) VHH: QVQLVESGGGLVQAGDSLRLSCAASGRTFSRYAMAWFRQAPGKEREFVAGISWTGRFTYYADSVKGRFTISRDDAKNTVYLQMNNLKPEDTGLYFCKVGDPYGVGLREYEWWGPGTQVTVSS in the records?
Output: 17.6 nM

Task: Endpoint output: Kd of G83 (VHH) VHH: QVQLVESGGGLVQAGGSLRLSCAASRRTFSIYNMGWFRQAPGKEREFVATITRYGDRTYTADSVKGRFTISSDQAKNTVYLQMNSLNPHDTAVYYCAADSAYSGPDFKHYDYWGQGTQVTVSS . Value?
Output: 0.761 nM

Task: Which Kd value is on record for G48 (VHH) VHH: QVQLVESGGGLVQAGGSLRLSCAASGRTFSTLSMGWFRQAPGQGREFVGGINYDGSSVEYADSVKGRFTISRDNAKNMMYLQMNSLKPEDTAAYYCASSRGYNTGTNPLGYDVWGQGTQVTVSS ?
Output: 126 nM

Task: Please look up its Kd: G2 (VHH) VHH: EVQLVESGGDLVQAGGSLRLSCSASGNIFKINDMGWYRQAPGKQRELVARISSSGNTNYADSVKGRFTISRDNGKNTVYLQMNRVKPEDTAVYYCNADVQVSRNYEYEYWGQGTQVTVSS
Output: 2000 nM

Task: Can you look up the measured Kd of G47 (VHH) VHH: QVQLVESGGGLVQAGGSLRLSCAASERIFSNYAMGWFRQAPGKEREFVASIRGSGSQTSYADSVKGRFTISRDGAKDTVDLQMNSLKPEDTAVYYCSAKKYCGSTYNRAEGYDYWGQGTQVTVSS for me?
Output: 32.4 nM

Task: Kd lookup needed for G7 (VHH) VHH: QVQLVESGGGLVQPGDSLRLSCAVSGQYVNMAAMGWFRQAPGKEREFVAGISWSDDTDIADSVKGRFTISRDHGKNTVDLQMNSLKPEDTGVYLCAGRFRRLAKDFGEYDYWGQGTQVTVSS , thanks.
Output: 268 nM

Task: Given the binder G13 (VHH, also called G13(C3)) VHH: DVQLVESGGGVVQAGGSLRLSCAASGRTFSDYAMGWFRQAPGKEREFVAGVSWSGVDTYYADSVKGRFTISRDNAKNTLYVQMNSLKPEDTAVYYCAAQRYYHGHAKNMRYDYWGQGTQVTVSS , what is its reported Kd?
Output: 0.36 nM

Task: For the binder G82 (VHH) VHH: HVQLVESGGGLVQAGGSLRLSCAASGKIFSLSTMGWYRQAPGKQRELVAALTSGGSTNYADSVKGRFTISRDNAKYTTYLQMNSLKPEDTAVYYCNVRYYSGYDGYESNSWGQGTQVTVSS , what Kd is on record?
Output: 0.504 nM

This collection of values is drawn from patent US20230176070A1.
